Study Target: UniProtKB P62942
Sequence (P62942 whole entry): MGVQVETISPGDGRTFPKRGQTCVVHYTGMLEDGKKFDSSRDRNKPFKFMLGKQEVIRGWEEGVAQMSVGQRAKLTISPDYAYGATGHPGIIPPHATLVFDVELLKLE
Test Method Notes: Ki test procedure: inhibition of peptidyl-prolyl isomerase (rotamase) activity, chymotrypsin-coupled assay
Format: biochemical
Test Settings: FKBP, substrate N-succinyl-Ala-Ala-Pro-Phe-p-nitroanilide; read-out: Ki (apparent Ki, rotamase inhibition)
Experimental Endpoint: Ki (nM)
Numbers only, in nM.

stdin: Input CCC(C)(C)C(=O)C(=O)N1CCC[C@H]1C(=O)OCCCc1ccc[n+]([O-])c1 , output reported Ki.
stdout: 225

* * *

Test Method Notes: Liver microsomal assay (model of first pass metabolism)
Type: in vitro ADME, mouse
Test Settings: mouse liver microsomes, 0.2 mg/mL protein, 37° C., 1 hour incubation; read-out: t1/2 (compound half-life in microsomal assay)
Experimental Endpoint: half-life (min)
Numbers only, in min.

stdin: Give me measured half-life, please, for this compound: CCC(C)(C)C(=O)C(=O)N1CCC[C@H]1C(=O)OCCCc1cccnc1 [Parent, reference compound]
stdout: 8.1
